Data provenance is patent US20260265246A1.

# Study System: 5HT2A receptor (Homo sapiens)
# Sequence (P28223 whole entry): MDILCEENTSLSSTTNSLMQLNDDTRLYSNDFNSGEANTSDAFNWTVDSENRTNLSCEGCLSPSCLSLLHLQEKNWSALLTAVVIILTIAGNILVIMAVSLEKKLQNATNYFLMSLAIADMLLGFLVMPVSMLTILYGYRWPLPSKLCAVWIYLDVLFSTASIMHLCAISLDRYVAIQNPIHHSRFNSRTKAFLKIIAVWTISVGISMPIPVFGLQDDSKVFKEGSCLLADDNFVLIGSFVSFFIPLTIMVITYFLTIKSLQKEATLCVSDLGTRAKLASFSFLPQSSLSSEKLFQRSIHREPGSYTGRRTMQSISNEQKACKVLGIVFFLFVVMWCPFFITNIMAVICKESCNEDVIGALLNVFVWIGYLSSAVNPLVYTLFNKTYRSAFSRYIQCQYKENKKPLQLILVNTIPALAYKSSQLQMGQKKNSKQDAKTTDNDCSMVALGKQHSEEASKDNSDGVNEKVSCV
# Assay Explanation: biochemical
# Assay type: binding
# Parameters: expressed in transfected cells; crude membranes
# Measurement Setup: secondary radioligand binding, Ki from IC50 by Cheng-Prusoff; read-out: 5HT2A Ki
Collected pKi values appear next to each entry.
pKi (log units): -log10 of the concentration in mol/L.

| Compound | Endpoint Value |
| --- | --- |
| COc1ccnc2[nH]cc(C3=CCCN(C)C3)c12 [Example 14] | 7.37 |

compound COc1cccc2[nH]cc(C3=CCCNC3)c12 [Example 18] , pKi observed: 7.30

compound CCN1CCC=C(c2c[nH]c3c(Cl)cccc23)C1 [Example 126] , pKi observed: 7.37

compound Clc1ccc2[nH]nc(C3=CCCNC3)c2c1 [Example 84] , pKi observed: 7.60
